For each of the variants below, state its yeast fitness.
B1: tRNA (parent)
chain: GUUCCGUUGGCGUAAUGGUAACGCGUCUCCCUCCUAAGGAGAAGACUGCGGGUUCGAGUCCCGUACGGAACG

Variants of: B1
Assay: yeast fitness relative to wild type (ratio to wild type); higher = fitter; tRNA-Arg(CCU), competitive growth, 37 C, YPD
This sample holds only a part of the variants without activity.
Reply with just the number.

Exercise: Could you tell me which yeast fitness is on file for C22G C30U U54C ?
Solution: 0.554

Exercise: Next: C49G C55A
Solution: 0.619

Exercise: Next: C4U G17A U19G A21G A43G
Solution: 0.554

Exercise: Next: C4A A70G
Solution: 0.93

Exercise: Next: C5A A20G G39C G52A
Solution: 0.593

Exercise: Next: A40G G44A A70G
Solution: 0.567

Exercise: Next: A21U G67U
Solution: 0.742

Exercise: Next: C31U C46G G50A C61U
Solution: 0.649

Exercise: Next: U19C A57C
Solution: 0.594

Exercise: Next: U7G U59G
Solution: 0.705

Exercise: Next: U2C C11A C22G
Solution: 0.602

Exercise: Next: G25C U35C G58C
Solution: 0.558

Exercise: Next: U53G C66U
Solution: 0.604

Exercise: Next: C22U A65G G68C
Solution: 0.534

Exercise: Next: C29U U32G
Solution: 0.686

Exercise: Next: C5U A14U U16A C66U
Solution: 0.511

Exercise: Next: G9C U16C A69C
Solution: 0.562

Exercise: Next: G38C A45G
Solution: 0.641

Exercise: Next: A20G G56A A57C
Solution: 0.574

Exercise: Next: U7A A42C
Solution: 0.775

Exercise: Next: A20U C29G A43U
Solution: 0.612

Exercise: Next: G6A A14C A37U
Solution: 0.689

Exercise: Next: C22G C34A A36U
Solution: 0.656

Exercise: Next: A20C A21C C27U C46A
Solution: 0.6

Exercise: Next: C60A G68C
Solution: 0.734

Exercise: Next: G25C C30U C61G
Solution: 0.526
